system: HCT-15 colon; assay: NCI-60 one-dose screen, 48 h; conditions: 10 µM unless noted
This is part of a sample that, as a whole, favours compounds with a hit. Of some 83,000 tested, about 20% had one in any assay. Calls of active or inactive are those of the source. How the source made its calls: active means growth percent below 10; inactive means the rest.
Answer with one of the outcomes active, inactive

Request: Given `C[C@@H]1C[C@H]2C(=O)O[C@@H](C)[C@H](NC(=O)[C@H](Cc3cc(F)cc(F)c3)NC(=O)Nc3ccc(Cl)cc3F)C(=O)N3C[C@H](O)C[C@H]3C(=O)N3CCN(C)C[C@H]3C(=O)N[C@@H](C)C(=O)N2C1` , state the outcome it received in this test.
Result: inactive

Request: Test call for this compound, please: `O=C(Nc1ccc(Oc2ccc(F)cc2)c(Cl)c1)c1cnccn1`
Result: inactive

Request: Assay outcome for `C=C(C)[C@@H]1CC[C@]2(C)[C@H](CC=C3[C@@H]4[C@@H](C)[C@H](C)CC[C@]4(C(N)=O)CC[C@]32C)[C@@]1(C)CCC#N` : what was it?
Result: active

Request: # fetch the recorded call for `COc1ccc(-c2cc(-c3ccccc3)nc(NCCNc3ccnc4cc(Cl)ccc34)n2)cc1` here
Result: active

Request: Please share the test call associated with `COc1ccc2[nH]c(C(=O)N3CCN(C(=O)OCc4ccc5c(Br)cc(Br)c(O)c5n4)CC3)cc2c1` .
Result: active

Request: Hello, I am checking results. What call was entered for `O=C(O)c1ccccc1C(F)(F)F` ?
Result: inactive

Request: # fetch the recorded call for `Cc1cc(SC#N)ncn1` here
Result: inactive

Request: Identify the outcome logged in this assay for the compound shown: `CCOc1cc(/C=N\NC(=O)N/N=C/c2ccc(O)c(OCC)c2)ccc1O`
Result: inactive

Request: Which outcome was assigned to `O=C(Oc1ccc(Cl)cc1[N+](=O)[O-])Oc1ccc(Cl)cc1[N+](=O)[O-]` in this test?
Result: inactive

Request: Which outcome did this test record for the compound `COc1ccc2c3ccnc(C(F)(F)F)c3n(CCCCN)c2c1` ?
Result: inactive

Request: GET /call?item= `N#C/C(C(=O)c1ccccc1)=C1/C(=O)Nc2ccc(Br)cc21` returns the recorded outcome of this test.
Result: inactive

Request: Tell me the recorded outcome of this test for `Cc1ccc(-n2nc3n(/c2=N\C(=O)NS(=O)(=O)c2ccc(C)cc2)CCN3C2=NCCN2)cc1` .
Result: inactive

Request: Hi team, can someone confirm the assay call for `Cc1ccc(-c2cn(C/C=C3\C=CN(S(=O)(=O)c4ccccc4)CC3)nn2)cc1` ?
Result: inactive

Request: For `N#CCCc1c[nH]c2ccccc12` , what call appears in the results of this test?
Result: inactive

* * *

system: OVCAR-3 ovarian; experiment: NCI-60 one-dose screen, 48 h; conditions: 10 µM unless noted
The panel holds about 83,000 compounds, 20% with a hit somewhere; the sample as a whole holds those more often. Calls of active or inactive are those of the source. Rule for the calls: active = growth percent below 10; inactive = the rest.
Result category, one only: 1 (yes) (active), 0 (no) (inactive)

Request: Recorded call for `Cc1cc(C)c(S(=O)(=O)/N=c2/n(-c3ccccc3)nc3n2CCN3C2=NCCN2)c(C)c1` ?
Result: 0 (no)

Request: Status in this test for `CC(=O)OC[C@]12CC[C@@H]([C@@H](C)C(N)=O)[C@@H]1[C@H]1CC[C@@H]3[C@@]4(C)CC[C@H](OC(C)=O)C(C)(C)[C@@H]4CC[C@@]3(C)[C@]1(C)CC2` ?
Result: 1 (yes)

Request: Assay outcome for `Clc1ccc(N2CCN(CCCN3CCN(c4cccc(Cl)c4)CC3)CC2)cc1` : what was it?
Result: 0 (no)

Request: Dear colleague, could you share the recorded outcome for `O=C(O)c1cn(C2CC2)c2cc(N3CCN(Cc4cc(Cl)ccc4O)CC3)c(F)cc2c1=O` when you have a moment?
Result: 0 (no)

Request: # lookup: test call for `CCCc1cc2cc(-n3nc(C)c4c3CC(C)(C)CC4=O)cc(NC3CCSCC3)c2c(=O)[nH]1`
Result: 0 (no)

Request: State the result this test recorded for `O=C1/C(=C\c2cccn2Cc2ccccc2)c2ccccc2N1c1c(Cl)cccc1Cl` .
Result: 1 (yes)

Request: Recorded call for `O=c1[nH]c2cc(Cl)c(Cl)cc2n2cc3ncccc3c12` ?
Result: 0 (no)

Request: Test call for this compound, please: CC[C@]1(O)CC2CN(CCc3c([nH]c4ccccc34)[C@@](C(=O)OC)(c3cc4c(cc3OC)N(C=O)[C@H]3[C@@](O)(C(=O)OC)[C@H](OC(C)=O)[C@]5(CC)C=CCN6CC[C@]43[C@@H]65)C2)C1 (some centres not stated)
Result: 1 (yes)

Request: Please let me know the test result on file for CCCCCC1CCCCN1C(=O)OCCCC (configuration not stated) .
Result: 0 (no)

Request: Please let me know the test result on file for `O=C(Nc1cc(F)cc2cccnc12)c1cnc(N2CCNCC2)cn1` .
Result: 1 (yes)

Request: Tell me the assay call for `Cn1c(=O)c(C#N)c(-c2ccco2)n2c(S(=O)(=O)Cc3ccccc3)nnc12` please.
Result: 0 (no)

Request: Which result was noted for this compound in the test: `Cc1ccc(C2=C/C(=C/c3ccc(Br)cc3)C(=O)N2CCc2ccc(S(N)(=O)=O)cc2)cc1`
Result: 0 (no)

Request: // param item: `O=S(=O)(NCCCNc1nccc(-c2c(-c3cccc(F)c3)nc3occn23)n1)c1cccc2ccccc12` ; yields the recorded call
Result: 0 (no)

Request: Fill in: this test's call for `CS(=O)(=O)c1cccnn1` is ___
Result: 0 (no)

Request: Dear all, I need the recorded test outcome for `CC(=O)Nc1ccc2nc3ccc(NC(C)=O)cc3[n+](-c3ccccc3)c2c1` , thank you.
Result: 0 (no)

Request: Please share the test call associated with `COc1ccc2nc3cc(Cl)ccc3c(Nc3ccc(O)c(CN4CCCC4)c3)c2c1` .
Result: 1 (yes)

Request: Query: recorded result category for `C[N+](C)(C)c1ncnc2[n-]cnc12` in this test
Result: 0 (no)

Request: Per the assay record, what outcome was assigned to `O=C1COCCN1c1ccc(NCc2cn(Cc3ccccc3)c3ccccc23)cc1` ?
Result: 0 (no)

Request: Recorded test outcome, item CCC(C)[C@H](NC(=O)NC(=O)NC(=O)CI)C(=O)OC (some centres not stated)
Result: 1 (yes)

Request: What call does the record list for `CC1=CC[C@@H]2C(C)(C)[C@@H](O)CC[C@@]2(C)[C@@H]1COc1ccc2ccc(=O)oc2c1` ?
Result: 0 (no)

Request: Could you please tell me the result logged for `Cc1cccc([N+](=O)[O-])c1I` in this assay?
Result: 0 (no)

Request: Assay outcome for CCN(CC)c1ccc2cc(C(Nc3ccc(Cl)cc3)c3nnnn3C(C)(C)C)c(=O)oc2c1 (configuration not stated) : what was it?
Result: 0 (no)

Request: Query: recorded result category for `CC(C)[C@H]1COC(=O)N1[C@@H]1C(=O)N([C@@H](CCC(=O)N2CCN(C3CCCC3)CC2)C(=O)N[C@@H]2CCCc3ccccc32)[C@@H]1/C=C/c1cccc(Cl)c1` in this test
Result: 0 (no)

Request: Please let me know the test result on file for `O=C(CCCCCCSc1nc(-c2ccc(Cl)cc2)cc(-c2ccc(Cl)cc2)n1)NO` .
Result: 0 (no)

Request: Hi team, can someone confirm the assay call for `COc1cc(-c2cc(-c3ccc(Nc4ncnc5cc(Cl)ccc45)cc3)nc(N3CCCCC3)n2)cc(OC)c1OC` ?
Result: 0 (no)

Request: Answer briefly: the call reported for `CC1(C)CC[C@]23CC[C@]4(C)[C@H](CC[C@@H]5[C@@]6(C)C/C(=C/c7ccncc7)C(=O)C(C)(C)[C@@H]6CC[C@]54C)[C@H]2[C@H]1OC3=O` in this assay.
Result: 0 (no)

Request: Look up the recorded call for `O=C(CCN1CCCCC1)c1ccc2ccccc2c1` in this test.
Result: 0 (no)

Request: How did this test come out for `CC(C)c1ccc(/C=N/N=C(N)N)cc1` ?
Result: 0 (no)

Request: Returns: the outcome recorded for `Cc1ccc(S(=O)(=O)n2cc(C(=O)C(=O)N3CCCCC3)c3ccccc32)cc1` in this assay.
Result: 0 (no)

Request: Tell me the recorded outcome of this test for `COc1ccc2c(c1)c(-c1noc(-c3cn(C)c4ncc(F)cc34)n1)cn2C` .
Result: 0 (no)

Request: Tell me the recorded outcome of this test for `CC1(C)C(=O)/C(=C\c2ccco2)C[C@]2(C)[C@H]3CC=C4[C@@H]5C[C@](C)(C(=O)O)CC[C@]5(C)CC[C@@]4(C)[C@]3(C)CC[C@@H]12` .
Result: 1 (yes)

Request: // outcome(item) with item = `CC(C)c1ccc(C(=O)Nc2sc3c(c2C#N)CCC(=O)C3)cc1`
Result: 1 (yes)

Request: Recorded test call requested for `COc1ccc2[nH]c(C(=O)N3CCN(C(=O)OCc4ccc5c(Br)cc(Br)c(O)c5n4)CC3)cc2c1`
Result: 1 (yes)

Request: Per the records of this test, what outcome belongs to `O=C(COc1cccc(/C=C2\Oc3ccccc3C2=O)c1)c1ccc([N+](=O)[O-])cc1` ?
Result: 0 (no)

Request: What did this assay record as the result for `Nc1cc(NN=C(c2ccc(O)cc2)c2ccc(O)cc2)c([N+](=O)[O-])cc1[N+](=O)[O-]` ?
Result: 0 (no)

Request: GET /call?item= `C#C[C@]1(O)CC[C@H]2[C@@H]3CC=C4c5nc(Nc6ccccn6)sc5CC[C@]4(C)[C@H]3CC[C@@]21C` returns the recorded outcome of this test.
Result: 0 (no)

Request: Given `COc1cc(NCc2ccccc2O)c2ncccc2c1` , state the outcome it received in this test.
Result: 0 (no)
